Listed here: items and their measured log10 of microsomal CLint at 2 μM.
MEASUREMENT NOTES: Microsomal stability
ASSAY CONDITIONS: human, microsomes, pH 7.4
Answers are given as log10 of microsomal CLint at 2 μM in µL/min/mg.

Record excerpt, results attached:
smiles_notation=CCN(Cc1ccc(NCCO)cn1)C(=O)c1ccc(S(=O)(=O)Nc2ccccc2)cc1 reported_measurement=1.08
smiles_notation=O=C(c1ccc(S(=O)(=O)Nc2ccccc2)cc1)N(Cc1ccc2ncoc2c1)CC1CC1 reported_measurement=2.42
smiles_notation=CCCCN(Cc1cccc(OC)c1)C(=O)c1ccc(S(=O)(=O)Nc2ccccc2)cc1 reported_measurement=2.75
smiles_notation=O=C(c1ccc(S(=O)(=O)Nc2ccccc2)cc1)N(CCO)Cc1ccccc1 reported_measurement=1.88
smiles_notation=CCCCN(Cc1ccccc1OC)C(=O)c1ccc(S(=O)(=O)Nc2ccccc2)cc1 reported_measurement=2.91

Given item "CCCCN(Cc1ccc(F)cc1)C(=O)c1ccc(S(=O)(=O)Nc2ccccc2)cc1" , the value recorded as its log10 of microsomal CLint at 2 μM is 2.61

Given item "O=C(c1ccc(S(=O)(=O)Nc2ccccc2)cc1)N(Cc1ccccc1)CC1(Cn2ccnc2)CC1" , the value recorded as its log10 of microsomal CLint at 2 μM is 2.04

Given item "O=C(c1ccc(S(=O)(=O)Nc2ccccc2)cc1)N(Cc1ccc(CCc2nnn[nH]2)cn1)CC1CC1" , the value recorded as its log10 of microsomal CLint at 2 μM is 1.34
